Reported In vitro Activity C-1 026 Wells values for the following molecules.
# Subject Of Test: activated human C1 (Homo sapiens)
# Procedure Text: Test Code 026 (C1 inhibitor)
# Type: biochemical
# Conditions Used: serial twofold dilution assay; higher well number indicates higher activity
Express the result in Wells but write the number alone.

Previously resolved entries follow.
* O=C(Nc1ccc(S[C@@H]2O[C@H](COS(=O)(=O)O)[C@@H](OS(=O)(=O)O)[C@H](OS(=O)(=O)O)[C@H]2OS(=O)(=O)O)cc1)c1cc(C(=O)Nc2ccc(S[C@@H]3O[C@H](COS(=O)(=O)O)[C@@H](OS(=O)(=O)O)[C@H](OS(=O)(=O)O)[C@H]3OS(=O)(=O)O)cc2)cc(C(=O)Nc2ccc(S[C@@H]3O[C@H](COS(=O)(=O)O)[C@@H](OS(=O)(=O)O)[C@H](OS(=O)(=O)O)[C@H]3OS(=O)(=O)O)cc2)c1.[Na].[Na].[Na].[Na].[Na].[Na].[Na].[Na].[Na].[Na].[Na].[Na] | 4
* O=S(=O)(O)OC[C@H]1O[C@@H](Sc2ccc(NS(=O)(=O)c3ccc4c(S(=O)(=O)Nc5ccc(S[C@@H]6O[C@H](COS(=O)(=O)O)[C@@H](OS(=O)(=O)O)[C@H](OS(=O)(=O)O)[C@H]6OS(=O)(=O)O)cc5)cc(S(=O)(=O)Nc5ccc(S[C@@H]6O[C@H](COS(=O)(=O)O)[C@@H](OS(=O)(=O)O)[C@H](OS(=O)(=O)O)[C@H]6OS(=O)(=O)O)cc5)cc4c3)cc2)[C@H](OS(=O)(=O)O)[C@@H](OS(=O)(=O)O)[C@@H]1OS(=O)(=O)O | 5
* O=C(Nc1ccc(S[C@@H]2O[C@H](COS(=O)(=O)O)[C@@H](OS(=O)(=O)O)[C@H](OS(=O)(=O)O)[C@H]2OS(=O)(=O)O)cc1)c1ccc(C(=O)Nc2ccc(S[C@@H]3O[C@H](COS(=O)(=O)O)[C@@H](OS(=O)(=O)O)[C@H](OS(=O)(=O)O)[C@H]3OS(=O)(=O)O)cc2)cc1.[Na].[Na].[Na].[Na].[Na].[Na].[Na].[Na] | 4

Now look at this one.
Recorded result, `O=S(=O)(O)OC[C@H]1O[C@@H](Sc2ccc(NS(=O)(=O)c3cc(S(=O)(=O)Nc4ccc(S[C@@H]5O[C@H](COS(=O)(=O)O)[C@@H](OS(=O)(=O)O)[C@H](OS(=O)(=O)O)[C@H]5OS(=O)(=O)O)cc4)cc(S(=O)(=O)Nc4ccc(S[C@@H]5O[C@H](COS(=O)(=O)O)[C@@H](OS(=O)(=O)O)[C@H](OS(=O)(=O)O)[C@H]5OS(=O)(=O)O)cc4)c3)cc2)[C@H](OS(=O)(=O)O)[C@@H](OS(=O)(=O)O)[C@@H]1OS(=O)(=O)O.[Na].[Na].[Na].[Na].[Na].[Na].[Na].[Na].[Na].[Na].[Na].[Na]` , In vitro Activity C-1 026 Wells: 10

The reported numbers originate from patent US4431638A.
